Test system: HepG2-A16-CD81EGFP cells
test: cells
conditionSummary: Homo sapiens, HepG2, read-out: Tox max inhibition (%) @ 50 uM
Label 1.0 when inhibition at 50 µM is at or above 10%; anything below gets 0.0.

compound: CCOC(=O)c1cnc2c(CC)cccc2c1O
classification: 0.0

compound: COc1ccc(C(C)=O)cc1N1C(=O)C2C(C1=O)C1(c3ccccc3)C(=O)C2(c2ccccc2)C(c2ccc(C)cc2)=C1c1ccc(C)cc1 (stereo not drawn)
classification: 0.0

compound: COc1ccccc1N1C(=N)SC(=Cc2ccc(OCc3ccccc3F)cc2)C1=O
classification: 1.0

compound: CC(C)CCNCC(O)Cn1c2ccccc2c2ccccc21 (stereo not drawn)
classification: 1.0

compound: COc1ccc2c(c1OC)C(=O)N1c3ccccc3N=C(c3ccc(C)cc3)CC21 (stereo not drawn)
classification: 0.0

compound: CC(C)OCc1cc(CN2CCN(c3cccc(Cl)c3)CC2)c(O)c2ncccc12
classification: 1.0

compound: COc1ccc(N2CCN(C(CNC(=O)C3CCCCC3)c3ccc4c(c3)OCO4)CC2)cc1 (stereo not drawn)
classification: 1.0

compound: O=C(NCc1ccco1)C1CCN(S(=O)(=O)c2ccc(Cl)cc2)CC1
classification: 1.0

compound: COc1ccc(-c2cc3c(SCC(=O)Nc4cc(C(F)(F)F)ccc4Cl)nccn3n2)cc1
classification: 1.0

---

Tested on: HepG2-A16-CD81EGFP cells
test: cells
conditionSummary: Homo sapiens, HepG2, read-out: HepG2 Tox% @ 50 uM rep1
Answer false (0) if cytotoxicity at 50 µM is under 50%, and true (1) if it is 50% or more.

molecule: CC(C)(C)CC(C)(C)NCC(O)COc1ccc2c(c1)CCC2 (stereo not drawn)
classification: true (1)
--
molecule: CCN(CC)CCn1c(=N)n(CC(O)c2ccc(Cl)c(Cl)c2)c2ccccc21 (stereo not drawn)
classification: true (1)
--
molecule: Oc1c(CN2CCN(c3ccccc3F)CC2)cc(Br)c2cccnc12
classification: true (1)
--
molecule: Cc1sc2ncnc(Sc3nc4ccccc4[nH]3)c2c1C
classification: false (0)
--
molecule: CCOC(=O)c1cn(CC)c2cc(N3CCCCC3)c(F)cc2c1=O
classification: false (0)
--
molecule: O=C(c1ccccc1F)N(Cc1ccc(Cl)cc1)c1ccccn1
classification: false (0)
--
molecule: O=C1c2ccccc2-c2nnc(-c3ccc(Br)cc3)cc21
classification: false (0)
--
molecule: CC(C)(C)c1ccc(C(=O)Nc2c3c(nn2-c2cccc(Cl)c2)CSC3)cc1
classification: false (0)
--
molecule: CCCCCCn1c(=N)n(CC(O)COc2cccc(C)c2)c2ccccc21 (stereo not drawn)
classification: true (1)
--
molecule: Cc1[nH]c(-c2ccc(F)cc2)cc1C(=O)NC1CCN(Cc2ccccc2)CC1
classification: true (1)
--
molecule: O=C(Nc1ccc(CN2CCOCC2)cc1)c1ccc(-c2ccc(Br)cc2)o1
classification: true (1)
--
molecule: COc1ccc(C(=O)NC(c2ccc(Cl)cc2Cl)c2cc(Cl)c3cccnc3c2O)cc1 (stereo not drawn)
classification: true (1)
--
molecule: Nc1ccc(-c2nc3cc(Oc4ccc(Oc5ccc6[nH]c(-c7ccc(N)cc7)nc6c5)cc4)ccc3[nH]2)cc1
classification: true (1)
--
molecule: FC(F)(F)c1ccc(Nc2nnnc3ccccc23)cc1
classification: false (0)
--
molecule: CC(=O)c1ccc(NC(=O)CSc2nc(-c3ccccc3Cl)ns2)cc1
classification: true (1)
--
molecule: COc1ccc(C2=C(c3ccc(OC)cc3)C3(c4ccccc4)C(=O)C2(c2ccccc2)C2C(=O)N(c4ccc(C)cc4)C(=O)C23)cc1 (stereo not drawn)
classification: false (0)
--
molecule: Cc1ccc(N2C3c4ccccc4N(S(=O)(=O)c4ccc(C)cc4)C2c2ccccc2N3S(=O)(=O)c2ccc(C)cc2)cc1
classification: false (0)

---

testedSystem: QuantiLum Recombinant Luciferase (Photinus pyralis, UniProt P08659)
Sequence (P08659 whole entry): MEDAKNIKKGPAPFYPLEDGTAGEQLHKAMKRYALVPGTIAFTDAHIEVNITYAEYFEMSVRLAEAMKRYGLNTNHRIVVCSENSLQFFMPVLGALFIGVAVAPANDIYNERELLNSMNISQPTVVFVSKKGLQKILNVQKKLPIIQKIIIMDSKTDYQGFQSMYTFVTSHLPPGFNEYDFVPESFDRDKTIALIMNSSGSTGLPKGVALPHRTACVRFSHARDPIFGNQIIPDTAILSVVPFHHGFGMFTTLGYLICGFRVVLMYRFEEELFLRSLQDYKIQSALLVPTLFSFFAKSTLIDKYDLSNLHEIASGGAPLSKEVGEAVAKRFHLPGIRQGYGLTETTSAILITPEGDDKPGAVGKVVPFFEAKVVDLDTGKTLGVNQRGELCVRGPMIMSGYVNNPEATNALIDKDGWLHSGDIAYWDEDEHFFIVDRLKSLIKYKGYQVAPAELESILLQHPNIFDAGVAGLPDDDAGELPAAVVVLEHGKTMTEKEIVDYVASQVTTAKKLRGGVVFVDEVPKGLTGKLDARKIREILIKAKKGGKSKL
test: Bioluminescence quantification of compound luciferase inhibition

molecule: CCOc1ccc(C=Cc2nc(=O)c3ccccc3o2)cc1
IC50: 16.5 µM

molecule: Cc1ccc(-c2cc3nc4c(c(O)n3n2)CCCC4)cc1
IC50: 1.79 µM

molecule: CCCCCC(=O)N1c2ccccc2N=C2CC(c3ccc(OC)c(OC)c3)CC(O)=C2C1c1ccc(C(F)(F)F)cc1 (centres unmarked)
IC50: > 50 µM

molecule: CCOc1ccc(Nc2ccnc3cc(Cl)ccc23)cc1
IC50: > 50 µM

molecule: CCCc1c(C)nc2ccccc2c1O
IC50: > 20 µM

---

// normalized signal at 0.0137174 (first series) lookup, one value per entry
System: Plasmodium berghei (Pb-Luc) exoerythrocytic-stage parasites
conditionSummary: concentration 0.0137174, first replicate series; fraction of control
readout: normalized signal at 0.0137174 (first series)

smilesRepresentation: COc1ccc(NC(=O)N(C)C[C@H]2Oc3c(NC(=O)CCCCCC(=O)Nc4ccccc4N)cccc3C(=O)N([C@H](C)CO)C[C@H]2C)cc1
endpointValue: 0.9808
//
smilesRepresentation: C[C@@H]1CN([C@H](C)CO)C(=O)c2ccccc2-c2ccccc2CO[C@H]1CN(C)C(=O)[C@H](Cc1ccccc1)N(C)C
endpointValue: 1.117
//
smilesRepresentation: C/C=C/c1ccc([C@H]2[C@@H](CO)N(CC3CCCCC3)[C@@H]2CNC(C)C)cc1
endpointValue: 0.9718

---

Test system: Plasmodium berghei (Pb-Luc) exoerythrocytic-stage parasites
conditionSummary: second series; concentration 0.000508053; fraction of control
readout: normalized signal at concentration 0.000508053

smilesRepresentation: C[C@@H]1CN([C@@H](C)CO)C(=O)c2cccc(NC(=O)c3ccc(-c4nccs4)cc3)c2O[C@H]1CN(C)C(=O)Nc1ccc(C(F)(F)F)cc1
testedSystem: Plasmodium berghei (Pb-Luc) exoerythrocytic-stage parasites
endpointValue: 0.85

smilesRepresentation: COc1ccc(NC(=O)N(C)C[C@H]2Oc3ccc(NC(=O)CCN4CCOCC4)cc3C(=O)N([C@H](C)CO)C[C@@H]2C)cc1
testedSystem: Plasmodium berghei (Pb-Luc) exoerythrocytic-stage parasites
endpointValue: 1.01

smilesRepresentation: CC(C)[C@H]1COCn2nncc2CCCC(=O)N1
testedSystem: Plasmodium berghei (Pb-Luc) exoerythrocytic-stage parasites
endpointValue: 0.94

smilesRepresentation: CN(C)c1ccc2c(c1)[C@@H]1C[C@@H](CC(=O)NC3CCCCC3)O[C@@H](CO)[C@@H]1O2
testedSystem: Plasmodium berghei (Pb-Luc) exoerythrocytic-stage parasites
endpointValue: 1.12

smilesRepresentation: O=S(=O)(c1cccs1)N1CCCCN2[C@H](CO)[C@H](c3ccc(/C=C/c4ccccc4)cc3)[C@H]2C1
testedSystem: Plasmodium berghei (Pb-Luc) exoerythrocytic-stage parasites
endpointValue: 0.94

smilesRepresentation: C[C@@H]1CN([C@H](C)CO)C(=O)c2cc(N(C)C)ccc2O[C@@H](C)CCCCO[C@H]1CN(C)S(=O)(=O)c1ccc(F)cc1
testedSystem: Plasmodium berghei (Pb-Luc) exoerythrocytic-stage parasites
endpointValue: 0.96

smilesRepresentation: C[C@@H]1CCCCO[C@@H](CN(C)S(=O)(=O)c2ccc(F)cc2)[C@@H](C)CN([C@@H](C)CO)C(=O)c2cc(N(C)C)ccc2O1
testedSystem: Plasmodium berghei (Pb-Luc) exoerythrocytic-stage parasites
endpointValue: 1.01

smilesRepresentation: C[C@H]1CN([C@@H](C)CO)C(=O)c2cc(C#Cc3ccccc3)cnc2O[C@H]1CN(C)C(=O)c1ccccc1
testedSystem: Plasmodium berghei (Pb-Luc) exoerythrocytic-stage parasites
endpointValue: 1.07

---

System: HepG2-A16-CD81EGFP cells
test: cells
conditionSummary: Homo sapiens, HepG2, read-out: % inhibition

molecule: COc1ccccc1CNC(=O)C1c2ccccc2C(=O)N(CC(C)C)C1c1cccs1 (stereo not shown)
testedSystem: HepG2-A16-CD81EGFP cells
unitAbbrev: %
inhibition at 50 µM: 83.2
//
molecule: Oc1ccccc1CNCC12CC3CC(CC(C3)C1)C2
testedSystem: HepG2-A16-CD81EGFP cells
unitAbbrev: %
inhibition at 50 µM: 94
//
molecule: O=C(Nc1cccc(C2=NCCN2)c1)Nc1cccc(C2=NCCN2)c1
testedSystem: HepG2-A16-CD81EGFP cells
unitAbbrev: %
inhibition at 50 µM: 48.2
//
molecule: CCCCCCC(O)(c1ccc(F)cc1)C(CN1CCOCC1)c1ccccc1 (stereo not shown)
testedSystem: HepG2-A16-CD81EGFP cells
unitAbbrev: %
inhibition at 50 µM: 98.1
//
molecule: O=C(CCl)NCCOc1ccc(Cl)cc1Cl
testedSystem: HepG2-A16-CD81EGFP cells
unitAbbrev: %
inhibition at 50 µM: 91.7
//
molecule: COc1ccc(-c2nc3cc(Cc4ccc5[nH]c(-c6ccc(OC)cc6)nc5c4)ccc3[nH]2)cc1
testedSystem: HepG2-A16-CD81EGFP cells
unitAbbrev: %
inhibition at 50 µM: 96
//
molecule: CCc1ccc(CNCC(O)c2ccccc2)cc1 (stereo not shown)
testedSystem: HepG2-A16-CD81EGFP cells
unitAbbrev: %
inhibition at 50 µM: 94.8
//
molecule: COC(=O)c1ccc(Cl)c2c1C1C=CCC1C(c1cccc3ccccc13)N2 (stereo not shown)
testedSystem: HepG2-A16-CD81EGFP cells
unitAbbrev: %
inhibition at 50 µM: 61.4
//
molecule: CSC1=NC(=Nc2c(C)cccc2C)C2(CCC(C(C)(C)C)CC2)N1c1ccc(Cl)cc1 (stereo not shown)
testedSystem: HepG2-A16-CD81EGFP cells
unitAbbrev: %
inhibition at 50 µM: 88.7
//
molecule: Cc1nc2ccccc2c(O)c1CC=C(Cl)Cl
testedSystem: HepG2-A16-CD81EGFP cells
unitAbbrev: %
inhibition at 50 µM: 31.7
//
molecule: Cc1ccc(CN2CCC(C(=O)Nc3ccc(-c4cc5ccccc5[nH]4)cc3)CC2)o1
testedSystem: HepG2-A16-CD81EGFP cells
unitAbbrev: %
inhibition at 50 µM: 42.7
//
molecule: COc1cc(C(=O)Nc2ccc(-c3nc4ccccc4[nH]3)cc2)cc(OC)c1OC
testedSystem: HepG2-A16-CD81EGFP cells
unitAbbrev: %
inhibition at 50 µM: 69.9
//
molecule: CCOc1ccc(C2N(C)c3ccccc3N2C)cc1
testedSystem: HepG2-A16-CD81EGFP cells
unitAbbrev: %
inhibition at 50 µM: 88
//
molecule: Cn1c(=O)c2cc(C(=O)NCCCN3CCCCCC3)sc2c2ccccc21
testedSystem: HepG2-A16-CD81EGFP cells
unitAbbrev: %
inhibition at 50 µM: 99.9
//
molecule: CCCCN(CCCC)S(=O)(=O)c1ccc(NC(=O)c2ccco2)cc1
testedSystem: HepG2-A16-CD81EGFP cells
unitAbbrev: %
inhibition at 50 µM: 94.7
//
molecule: OC(Cn1nnc2ccccc21)Cn1c2ccc(Br)cc2c2cc(Br)ccc21 (stereo not shown)
testedSystem: HepG2-A16-CD81EGFP cells
unitAbbrev: %
inhibition at 50 µM: 43.6
//
molecule: CCC1(C)CC(CCNCc2ccccc2O)(c2ccc(C)cc2)CCO1 (stereo not shown)
testedSystem: HepG2-A16-CD81EGFP cells
unitAbbrev: %
inhibition at 50 µM: 96.7
//
molecule: COc1ccc(CNC(=O)c2cc3c(=O)n4ccccc4nc3n(CCc3ccccc3)c2=N)cc1
testedSystem: HepG2-A16-CD81EGFP cells
unitAbbrev: %
inhibition at 50 µM: 1.19
//
molecule: CCOC(=O)c1c(C)n(-c2ccc(Cl)cc2)c2ccc(OC(=O)C=Cc3ccccc3)cc12
testedSystem: HepG2-A16-CD81EGFP cells
unitAbbrev: %
inhibition at 50 µM: 70.5
